Measured shrunken log2 fold change accompanies every entry in the list below.
system: Escherichia coli TOP10; assay: shrunken log2 fold change of peptide-encoding DNA abundance (4.5 h post-induction vs induction); higher = less antimicrobial activity (less host growth inhibition); settings: time post-induction: 4.5 h; library: site-saturation at positions 5, 18, 19, 20
Enter a number only.

RESIDUE STRING	ASSAY RESULT
RRIRIRPPRLPRPRPRPMPKPRP	-0.0638
RRIRARPPRLPRPRPRPENFPRP	0.0336
RRIRYRPPRLPRPRPRPHQFPRP	-0.984
RRIRKRPPRLPRPRPRPIYFPRP	0.216
RRIRTRPPRLPRPRPRPEKIPRP	0.0436
RRIRLRPPRLPRPRPRPFDTPRP	-0.167

Exercise: What value of shrunken log2 fold change on Escherichia coli TOP10 does RRIRKRPPRLPRPRPRPCLIPRP have?
Key: -0.36

Exercise: What value of shrunken log2 fold change on Escherichia coli TOP10 does RRIRQRPPRLPRPRPRPPVFPRP have?
Key: 0.247

Exercise: What value of shrunken log2 fold change on Escherichia coli TOP10 does RRIRQRPPRLPRPRPRPNSIPRP have?
Key: -0.21

Exercise: What value of shrunken log2 fold change on Escherichia coli TOP10 does RRIRDRPPRLPRPRPRPWYIPRP have?
Key: -0.0219

Exercise: What value of shrunken log2 fold change on Escherichia coli TOP10 does RRIRCRPPRLPRPRPRPNTAPRP have?
Key: -0.22

Exercise: What value of shrunken log2 fold change on Escherichia coli TOP10 does RRIRPRPPRLPRPRPRPEAPPRP have?
Key: 0.53

Exercise: What value of shrunken log2 fold change on Escherichia coli TOP10 does RRIRIRPPRLPRPRPRPESWPRP have?
Key: 0.249

====

system: Escherichia coli TOP10; assay: shrunken log2 fold change of peptide-encoding DNA abundance (4.5 h post-induction vs induction); higher = less antimicrobial activity (less host growth inhibition); conditions: time post-induction: 4.5 h; library: site-saturation at positions 5, 18, 19, 20
Rule: shrunken log2 fold change under 0.2 gives Not fulfilled, otherwise Fulfilled.

Example entries begin here.
RESIDUE STRING	CATEGORY
RRIRDRPPRLPRPRPRPHFCPRP	Fulfilled
RRIRFRPPRLPRPRPRPICAPRP	Not fulfilled
RRIRTRPPRLPRPRPRPIVNPRP	Not fulfilled
RRIRARPPRLPRPRPRPPCRPRP	Fulfilled
RRIRMRPPRLPRPRPRPGKNPRP	Fulfilled

Exercise: Reported shrunken log2 fold change reaches at least 0.2 for RRIRIRPPRLPRPRPRPRKKPRP ?
Key: Fulfilled

Exercise: Reported shrunken log2 fold change reaches at least 0.2 for RRIRERPPRLPRPRPRPIWMPRP ?
Key: Not fulfilled

Exercise: Reported shrunken log2 fold change reaches at least 0.2 for RRIRKRPPRLPRPRPRPHEPPRP ?
Key: Not fulfilled

====

Measured shrunken log2 fold change accompanies every entry in the list below.
test system: Escherichia coli TOP10; test: shrunken log2 fold change of peptide-encoding DNA abundance (4.5 h post-induction vs induction); higher = less antimicrobial activity (less host growth inhibition); details: time post-induction: 4.5 h; library: site-saturation at positions 5, 18, 19, 20;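 also: peptides expressed intracellularly from a pBAD plasmid library in pooled LB shake-flask culture, induced with 0.3% L-arabinose, DNA abundance read by NGS, three biological replicates, DESeq2 with apeglm shrinkage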
Enter a number only.

Known results for sequences:
RESIDUE STRING	shrunken log2 fold change
RRIRWRPPRLPRPRPRPDYTPRP	-0.0601
RRIRSRPPRLPRPRPRPKKVPRP	-0.00648
RRIRGRPPRLPRPRPRPVDLPRP	0.687
RRIRYRPPRLPRPRPRPYENPRP	0.0075
RRIRGRPPRLPRPRPRPMKAPRP	0.231

Exercise: Reported shrunken log2 fold change for RRIRARPPRLPRPRPRPPPIPRP : what is it?
Key: 1

Exercise: Reported shrunken log2 fold change for RRIRRRPPRLPRPRPRPFSKPRP : what is it?
Key: -0.348

Exercise: Reported shrunken log2 fold change for RRIRCRPPRLPRPRPRPLEMPRP : what is it?
Key: -0.249

Exercise: Reported shrunken log2 fold change for RRIRSRPPRLPRPRPRPNNWPRP : what is it?
Key: -0.0732

Exercise: Reported shrunken log2 fold change for RRIRPRPPRLPRPRPRPHAFPRP : what is it?
Key: 0.0176
